Where do the numbers come from? From paper PMC8393492.

Biological target: pancreatic α-amylase (Sus scrofa)
Sequence (P00690 16-511): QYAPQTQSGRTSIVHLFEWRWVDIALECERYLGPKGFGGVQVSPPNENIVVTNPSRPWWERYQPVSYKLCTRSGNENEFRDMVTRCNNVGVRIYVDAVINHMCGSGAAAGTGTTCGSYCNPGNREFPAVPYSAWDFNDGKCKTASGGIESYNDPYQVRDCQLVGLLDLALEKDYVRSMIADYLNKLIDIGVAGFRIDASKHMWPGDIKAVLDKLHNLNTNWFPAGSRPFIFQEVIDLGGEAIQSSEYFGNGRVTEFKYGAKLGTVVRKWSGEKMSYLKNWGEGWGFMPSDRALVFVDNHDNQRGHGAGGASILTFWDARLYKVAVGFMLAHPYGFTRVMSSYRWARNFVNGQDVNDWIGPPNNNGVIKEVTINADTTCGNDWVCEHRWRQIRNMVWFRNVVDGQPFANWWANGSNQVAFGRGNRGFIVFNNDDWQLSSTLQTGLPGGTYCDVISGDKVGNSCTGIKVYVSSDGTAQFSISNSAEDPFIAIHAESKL
Assay: In vitro pancreatic α-amylase inhibitory assay (starch substrate, DNSA)
Attribute Measured: pIC50
Hey, just a heads up that pIC50 is the negative log base 10 of the concentration in molar.

Input line: Output pIC50 of O=C(O)c1cc(O)c(O)c(O)c1
Output line: 4.56
